Biological target: BRM (Homo sapiens)
Construct: made in house; host or cells: High Five insect cells
Sequence (P51531 whole entry): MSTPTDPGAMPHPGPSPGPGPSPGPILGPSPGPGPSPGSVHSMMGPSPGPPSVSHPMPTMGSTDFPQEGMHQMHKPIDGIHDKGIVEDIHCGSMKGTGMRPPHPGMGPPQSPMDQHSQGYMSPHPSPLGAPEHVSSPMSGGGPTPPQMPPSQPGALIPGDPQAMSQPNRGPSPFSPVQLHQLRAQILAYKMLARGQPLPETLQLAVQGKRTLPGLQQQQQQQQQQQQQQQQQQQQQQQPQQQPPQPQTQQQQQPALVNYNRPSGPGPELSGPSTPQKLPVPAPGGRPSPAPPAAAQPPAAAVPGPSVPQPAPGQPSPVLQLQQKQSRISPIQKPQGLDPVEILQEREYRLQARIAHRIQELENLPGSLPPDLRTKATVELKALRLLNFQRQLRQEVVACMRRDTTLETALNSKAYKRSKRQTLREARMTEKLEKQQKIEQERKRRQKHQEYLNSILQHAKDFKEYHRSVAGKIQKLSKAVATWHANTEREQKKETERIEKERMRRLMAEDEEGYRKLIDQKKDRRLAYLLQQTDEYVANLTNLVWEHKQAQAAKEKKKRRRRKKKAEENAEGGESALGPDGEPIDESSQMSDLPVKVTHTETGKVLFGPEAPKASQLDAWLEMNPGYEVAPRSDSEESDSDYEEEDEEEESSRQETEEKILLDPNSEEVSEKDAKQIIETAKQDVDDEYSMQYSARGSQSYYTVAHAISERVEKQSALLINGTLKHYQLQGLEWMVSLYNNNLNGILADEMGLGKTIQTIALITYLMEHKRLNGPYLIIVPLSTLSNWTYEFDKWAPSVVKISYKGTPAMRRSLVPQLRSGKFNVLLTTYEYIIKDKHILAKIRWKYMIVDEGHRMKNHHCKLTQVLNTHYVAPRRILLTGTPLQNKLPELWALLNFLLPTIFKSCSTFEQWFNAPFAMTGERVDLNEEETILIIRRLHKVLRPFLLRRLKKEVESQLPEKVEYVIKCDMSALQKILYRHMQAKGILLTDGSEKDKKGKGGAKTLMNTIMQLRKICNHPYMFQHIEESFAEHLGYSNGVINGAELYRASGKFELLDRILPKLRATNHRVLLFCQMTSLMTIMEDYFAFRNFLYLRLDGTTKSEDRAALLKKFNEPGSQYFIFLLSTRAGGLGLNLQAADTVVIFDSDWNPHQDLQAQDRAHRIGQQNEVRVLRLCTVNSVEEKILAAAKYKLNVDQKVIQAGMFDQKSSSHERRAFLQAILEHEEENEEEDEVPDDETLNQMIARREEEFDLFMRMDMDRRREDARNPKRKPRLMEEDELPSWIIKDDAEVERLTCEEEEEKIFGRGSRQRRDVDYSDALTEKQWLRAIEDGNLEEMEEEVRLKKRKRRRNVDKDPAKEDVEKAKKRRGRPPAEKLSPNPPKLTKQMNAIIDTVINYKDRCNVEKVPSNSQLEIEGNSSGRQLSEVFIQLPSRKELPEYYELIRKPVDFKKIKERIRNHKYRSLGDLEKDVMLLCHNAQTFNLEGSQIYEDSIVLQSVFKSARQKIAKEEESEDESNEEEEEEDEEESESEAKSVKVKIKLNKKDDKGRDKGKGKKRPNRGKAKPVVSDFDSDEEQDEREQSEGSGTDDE
Assay: ATPase catalytic activity of BRM, ADP-Glo in vitro biochemical assay
Settings: ATPase catalytic activity, 30 nM BRM, 400 μM ATP, read-out: BRM IP50 (μM)*
We begin with a simple list: items and their reported IC50.

Compound	IC50
C[C@@H]1CN(c2cccc(-c3csc(NC(=O)CNC(=O)c4ccn(S(C)(=O)=O)c4)n3)c2)C[C@@H](C)O1 [Compound 85]	< 0.01 µM
CS(=O)(=O)n1ccc(C(=O)NCC(=O)Nc2nc(-c3cccc(N4CCC[C@@H](F)C4)c3)cs2)c1 [Compound 213]	> 0.01 µM
CC1Cc2ccc(-c3csc(NC(=O)CNC(=O)c4ccn(S(C)(=O)=O)c4)n3)cc2O1 (centres unmarked) [Compound 249]	> 0.01 µM
COC[C@@H]1CCCN(c2cccc(-c3csc(NC(=O)CNC(=O)c4ccn(C(C)(C)C)c4)n3)n2)C1 [Compound 318]	> 0.01 µM
C[C@@H]1CN(c2cccc(-c3csc(NC(=O)CNC(=O)c4ccn(C(C)(C)C)c4)n3)c2F)C[C@H](C)O1 [Compound 269]	> 0.01 µM
CS(=O)(=O)n1ccc(C(=O)NCC(=O)Nc2nc(-c3cccc(N4CCC[C@H](C#N)C4)c3)cs2)c1 [Compound 197]	< 0.01 µM
CC1(n2ccc(C(=O)NCC(=O)Nc3nc(-c4ccc5c(c4)OCC5)cs3)c2)COC1 [Compound 271]	> 0.01 µM
CS(=O)(=O)n1ccc(C(=O)NCC(=O)Nc2nc(-c3cccc(N4CCCOCC4)c3)cs2)c1 [Compound 210]	> 0.01 µM

====

Target: BRG-1 (Homo sapiens, UniProt P51532)
Construct: made in house; host or cells: High Five insect cells
Sequence (P51532 whole entry): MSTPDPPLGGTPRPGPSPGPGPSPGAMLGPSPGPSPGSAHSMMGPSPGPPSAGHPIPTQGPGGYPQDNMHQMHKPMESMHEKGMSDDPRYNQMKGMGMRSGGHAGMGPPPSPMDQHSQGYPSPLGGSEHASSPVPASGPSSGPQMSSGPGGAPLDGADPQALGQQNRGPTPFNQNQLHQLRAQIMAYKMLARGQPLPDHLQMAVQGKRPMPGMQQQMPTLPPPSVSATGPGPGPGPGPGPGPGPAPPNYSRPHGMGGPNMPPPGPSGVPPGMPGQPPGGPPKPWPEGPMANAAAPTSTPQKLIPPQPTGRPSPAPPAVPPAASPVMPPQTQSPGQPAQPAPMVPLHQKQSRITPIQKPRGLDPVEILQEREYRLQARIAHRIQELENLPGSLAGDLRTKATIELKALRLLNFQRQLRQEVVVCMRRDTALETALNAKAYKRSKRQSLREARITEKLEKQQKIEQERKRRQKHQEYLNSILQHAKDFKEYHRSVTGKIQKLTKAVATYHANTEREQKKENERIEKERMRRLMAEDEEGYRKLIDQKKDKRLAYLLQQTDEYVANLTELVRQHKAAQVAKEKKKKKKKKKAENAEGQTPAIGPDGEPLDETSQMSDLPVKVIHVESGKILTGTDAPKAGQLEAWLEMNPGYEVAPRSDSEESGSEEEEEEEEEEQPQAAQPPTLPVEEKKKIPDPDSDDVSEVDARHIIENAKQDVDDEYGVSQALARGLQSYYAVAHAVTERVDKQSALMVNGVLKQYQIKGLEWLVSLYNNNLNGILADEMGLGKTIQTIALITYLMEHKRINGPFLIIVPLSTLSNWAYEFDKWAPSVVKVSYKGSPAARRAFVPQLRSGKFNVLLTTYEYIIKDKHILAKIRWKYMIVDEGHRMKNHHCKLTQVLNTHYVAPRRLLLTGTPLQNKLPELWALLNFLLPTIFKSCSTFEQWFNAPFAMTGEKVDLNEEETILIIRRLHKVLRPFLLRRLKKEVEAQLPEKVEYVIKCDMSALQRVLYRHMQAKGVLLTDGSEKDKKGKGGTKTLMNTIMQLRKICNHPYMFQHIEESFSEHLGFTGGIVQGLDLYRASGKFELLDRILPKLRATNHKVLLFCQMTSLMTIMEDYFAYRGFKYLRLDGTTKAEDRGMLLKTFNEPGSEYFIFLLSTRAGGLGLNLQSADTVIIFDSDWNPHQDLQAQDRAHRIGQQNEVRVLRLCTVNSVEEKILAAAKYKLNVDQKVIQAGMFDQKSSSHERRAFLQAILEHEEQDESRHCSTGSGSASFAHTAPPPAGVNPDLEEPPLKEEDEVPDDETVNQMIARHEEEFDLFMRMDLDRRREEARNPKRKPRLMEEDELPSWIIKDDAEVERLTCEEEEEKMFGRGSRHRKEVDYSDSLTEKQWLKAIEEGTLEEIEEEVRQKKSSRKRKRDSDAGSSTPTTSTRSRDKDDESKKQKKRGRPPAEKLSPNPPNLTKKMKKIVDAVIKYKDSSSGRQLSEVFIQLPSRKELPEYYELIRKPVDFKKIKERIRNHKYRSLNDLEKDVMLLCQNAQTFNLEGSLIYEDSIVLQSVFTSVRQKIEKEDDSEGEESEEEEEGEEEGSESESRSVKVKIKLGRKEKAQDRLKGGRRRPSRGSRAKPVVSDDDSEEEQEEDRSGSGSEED
Experiment: ATPase catalytic activity of BRG-1, ADP-Glo in vitro biochemical assay
Details: ATPase catalytic activity, 30 nM BRG-1, 400 μM ATP, read-out: BRG1 IP50 (μM)*
# IC50 per record follows

Molecule	Study target	IC50
CC(C)(C)n1ccc(C(=O)NCC(=O)Nc2nc(-c3ccc4c(c3)OCC4)cs2)c1 [Compound 308]	BRG-1 (Homo sapiens, UniProt P51532)	> 0.01 µM
CC(Oc1ccccc1)c1cccc(-c2csc(NC(=O)CNC(=O)c3ccn(S(C)(=O)=O)c3)n2)c1 (centres unmarked) [Compound 103]	BRG-1 (Homo sapiens, UniProt P51532)	> 0.1 µM
CC(C)(C)n1ccc(C(=O)NCC(=O)Nc2nc(-c3cccc(N4CCOCC4)c3)cs2)c1 [Compound 100]	BRG-1 (Homo sapiens, UniProt P51532)	> 0.01 µM
CS(=O)(=O)n1ccc(C(=O)NCC(=O)Nc2nc(-c3cccc(N4CCC[C@@H](F)C4)c3)cs2)c1 [Compound 213]	BRG-1 (Homo sapiens, UniProt P51532)	> 0.01 µM
CS(=O)(=O)n1ccc(C(=O)NCC(=O)Nc2nc(-c3cccc(N4CC[C@@H](N)[C@H](F)C4)c3)cs2)c1 [Compound 290]	BRG-1 (Homo sapiens, UniProt P51532)	> 0.01 µM
CC(C)(CN)n1ccc(C(=O)NCC(=O)Nc2nc(-c3cccc(-c4ccncc4)c3)cs2)c1 [Compound 42]	BRG-1 (Homo sapiens, UniProt P51532)	> 0.1 µM
COC[C@H](NC(=O)c1ccn(S(C)(=O)=O)c1)C(=O)Nc1nc(-c2cccc(-c3cnn(C)n3)c2)cs1 [Compound 352]	BRG-1 (Homo sapiens, UniProt P51532)	< 0.01 µM
Cc1cc(C)cc(-c2cccc(-c3csc(NC(=O)CNC(=O)c4ccn(S(C)(=O)=O)c4)n3)c2)c1 [Compound 55]	BRG-1 (Homo sapiens, UniProt P51532)	< 0.01 µM
COC[C@H](NC(=O)c1ccn(S(C)(=O)=O)c1)C(=O)Nc1nc(-c2ccc3c(c2)C(=O)N(C)CC3)cs1 [Compound 351]	BRG-1 (Homo sapiens, UniProt P51532)	> 0.01 µM
O=C(CNC(=O)c1ccn(C2CCNCC2)c1)Nc1nc(-c2cccc(-c3ccncc3)c2)cs1 [Compound 39]	BRG-1 (Homo sapiens, UniProt P51532)	> 1 µM
CS(=O)(=O)n1ccc(C(=O)NCC(=O)Nc2nc(-c3cccc(N4CCCC4)c3)cs2)c1 [Compound 231]	BRG-1 (Homo sapiens, UniProt P51532)	> 0.01 µM
COC[C@H](NC(=O)c1ccn(S(C)(=O)=O)c1)C(=O)Nc1nc(-c2cccc(N3CCC3)c2)cs1 [Compound 366]	BRG-1 (Homo sapiens, UniProt P51532)	> 0.01 µM
Cc1nccn1-c1cccc(-c2csc(NC(=O)CNC(=O)c3ccn(S(C)(=O)=O)c3)n2)c1 [Compound 115]	BRG-1 (Homo sapiens, UniProt P51532)	> 0.1 µM
CC(C)(C)n1ccc(C(=O)NCC(=O)Nc2nc(-c3cccc(N4CC5(COC5)C4)c3)cs2)c1 [Compound 245]	BRG-1 (Homo sapiens, UniProt P51532)	> 0.01 µM
